Values were extracted from the supplement of paper PMC10567573.

B1: APBB1IP (parent)
chain: FNYSVGFKDLNESLNALEDQDLDA

Variants of: B1
measurement-notes: protein stability index of a GFP-peptide fusion (GPS, HEK-293T) (PSI 1-6); higher = more stable;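 further: lentivirally expressed fusions sorted by FACS into six bins by GFP to DsRed ratio, PSI derived from sequencing read proportions per bin multiplied by bin number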
recorded-conditions: c terminus: a fixed tail appended
Rule: protein stability index under 4 gives FALSE, otherwise TRUE.

Given the entry "L10S" , answer whether its protein stability index meets or surpasses 4.
TRUE

How about "D23F" ?
FALSE

Now consider "K8C" .
FALSE

Also "K8R" , if possible.
TRUE

Now the variant "N11W"
FALSE

Another variant to look at: "N15F"
FALSE

Proceed to "L10V"
TRUE

// repeat for "L14N" and report
TRUE
